Please provide measured viability, T/C for the entries that follow.
- Test system: 855422-203-R-J1-PDC complex spheroids, viability
- assay remarks: Anticancer human tumor 855422-203-R-J1-PDC patient-derived bladder carcinoma cell line growth inhibition [CLK]
- test conditions: second compound 0.1 µM; first compound 1 µM; hits give low values
Give the number; % is assumed, so skip it.

For the compound C=C(F)C(=O)N1CCN(c2nc(OCC3CCCN3C)nc3c2CCN(c2cccc4cccc(Cl)c24)C3)CC1CC#N (stereo not drawn) + CN1CCN(c2cc(C(=O)Nc3cc4cc(-c5cnn(C)c5)ccc4cn3)ccn2)CC1 , give its reported viability, T/C.
95.1

For the compound CC1(C)CCC(CN2CCN(c3ccc(C(=O)NS(=O)(=O)c4ccc(NCC5CCOCC5)c([N+](=O)[O-])c4)c(Oc4cnc5[nH]ccc5c4)c3)CC2)=C(c2ccc(Cl)cc2)C1 + CN1CCN(c2cc(C(=O)Nc3cc4cc(-c5cnn(C)c5)ccc4cn3)ccn2)CC1 , give its reported viability, T/C.
88.2

For the compound Nc1ccn(C2OC(CO)C(O)C2(F)F)c(=O)n1 (stereo not drawn) + CN1CCN(c2cc(C(=O)Nc3cc4cc(-c5cnn(C)c5)ccc4cn3)ccn2)CC1 , give its reported viability, T/C.
11.9

* * *

- Tested on: 855422-203-R-J1-PDC complex spheroids, viability
- assay remarks: Anticancer human tumor 855422-203-R-J1-PDC cell line growth inhibition [CLK];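 note: spheroids exposed to drugs for seven days before readout; 100% = DMSO vehicle control wells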
- test conditions: second compound 10 µM; first compound 0.00949 µM; hits give low values
Please provide measured viability, T/C for the entries that follow.
Give the number; % is assumed, so skip it.

Write down measured viability, T/C (855422-203-R-J1-PDC complex spheroids, viability) for this compound. CC(C)CC(NC(=O)C(Cc1ccccc1)NC(=O)c1cnccn1)B(O)O (stereo not drawn) + CN1CCN(c2cc(C(=O)Nc3cc4cc(-c5cnn(C)c5)ccc4cn3)ccn2)CC1
2.1

Write down measured viability, T/C (855422-203-R-J1-PDC complex spheroids, viability) for this compound. NC(=O)C(=Cn1cnc(-c2cc(C(F)(F)F)cc(C(F)(F)F)c2)n1)c1cncnc1 + CNC(=O)c1ccc(Nc2nc(OC3CCCC3)c3c(-c4ccc5nc(C)oc5c4)c[nH]c3n2)c(OC)c1
14.7

Write down measured viability, T/C (855422-203-R-J1-PDC complex spheroids, viability) for this compound. NC(=O)C(=Cn1cnc(-c2cc(C(F)(F)F)cc(C(F)(F)F)c2)n1)c1cncnc1 + CN1CCN(c2cc(C(=O)Nc3cc4cc(-c5cnn(C)c5)ccc4cn3)ccn2)CC1
0.14

* * *

- Test system: 855422-203-R-J1-PDC complex spheroids, viability
- assay remarks: Anticancer human tumor 855422-203-R-J1-PDC cell line growth inhibition [CLK]; active = viability on the fitted dose curve at most 10% of control; inactive = the rest;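 note: spheroids exposed to drugs for seven days before readout; 100% = DMSO vehicle control wells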
- test conditions: second compound 0.316 µM; first compound 3.16 µM
Could you please pick one outcome from this set? true (1) (active), false (0) (inactive)

# fetch the recorded call for COc1cccc2c1C(=O)c1c(O)c3c(c(O)c1C2=O)CC(O)(C(=O)CO)CC3OC1CC(N)C(O)C(C)O1 (centres undefined) + CN1CCN(c2cc(C(=O)Nc3cc4cc(-c5cnn(C)c5)ccc4cn3)ccn2)CC1 here
true (1)

# fetch the recorded call for Nc1ccccc1NC(=O)c1ccc(CNC(=O)OCc2cccnc2)cc1 + CNC(=O)c1ccc(Nc2nc(OC3CCCC3)c3c(-c4ccc5nc(C)oc5c4)c[nH]c3n2)c(OC)c1 here
false (0)

# fetch the recorded call for CC1COCCN1c1cc(C2(S(C)(=N)=O)CC2)nc(-c2ccnc3[nH]ccc23)n1 (centres undefined) + CNC(=O)c1ccc(Nc2nc(OC3CCCC3)c3c(-c4ccc5nc(C)oc5c4)c[nH]c3n2)c(OC)c1 here
false (0)

# fetch the recorded call for CCCS(=O)(=O)Nc1ccc(F)c(C(=O)c2c[nH]c3ncc(-c4ccc(Cl)cc4)cc23)c1F + CNC(=O)c1ccc(Nc2nc(OC3CCCC3)c3c(-c4ccc5nc(C)oc5c4)c[nH]c3n2)c(OC)c1 here
false (0)
